# procedure.summary: Acute toxicity test (up-down method, i.v.)
# condition.summary: mouse, in vivo, iv, male ddy mice
Output condition met for records whose LD50 is lower than 100 mg/kg, condition not met for records at or above 100 mg/kg.

>>> class_assignment("C[S+](C)CCC1CCCCO1 (stereo not drawn)")
"condition met"
>>> class_assignment("C[S+](C)CC1CCCO1 (stereo not drawn) [Compound 1, p-toluenesulfonate]")
"condition not met"
>>> class_assignment("C[S+](C)CCC1CCCO1 (stereo not drawn)")
"condition not met"
>>> class_assignment("C[S+](C)CCCC1CCCO1 (stereo not drawn)")
"condition met"
>>> class_assignment("C[S+](CCOC(=O)c1ccccc1)CC1CCCO1 (stereo not drawn)")
"condition met"
>>> class_assignment("CCCC[S+](C)CC1CCCO1 (stereo not drawn)")
"condition met"
